# emission maximum per record follows
assayMethodText: solvent given as SMILES
reportedConditions: in CC#N
Numbers only; they are read as nm.

Illustrative cases are given below, each with its answer.
molecularstring=C#CCn1c2ccccc2c2cc(/C=C/c3cc(C)c4n3[B-](F)(F)[N+]3=C(C)C=C(C)C3=C4c3ccc(I)cc3)ccc21 u=nm datavalue=605
molecularstring=COc1cc(OC)cc(C2=[O+][B-](F)(F)OC(c3ccccc3)=C2)c1 u=nm datavalue=602.29
molecularstring=C(=C\c1ncnc2ccccc12)/c1ccc(N(c2ccccc2)c2ccccc2)cc1 u=nm datavalue=598
molecularstring=c1ccc2c(-c3ccc4sc5ccccc5c4c3)c3ccccc3cc2c1 u=nm datavalue=404.15

// emission maximum lookup, key: CC(C)(C)OC(=O)c1c(C=Cc2ccccc2)oc(NC2CCCCC2)c1C(=O)OC(C)(C)C
462

// emission maximum lookup, key: N#Cc1nn(-c2ccccc2Cl)nc1N1CCCC1
426

// emission maximum lookup, key: C(=C\c1ccncn1)/c1ccc(-c2ccc(N(c3ccccc3)c3ccccc3)cc2)cc1
599

// emission maximum lookup, key: O=C1c2ccccc2-c2ccc(N3CCN(c4ccccc4)CC3)c3cccc1c23
603

// emission maximum lookup, key: O=S(=O)([O-])c1ccc(O)c2ccccc12
358

// provenance: the Deep4Chem optical property database
